assay: Metabolic stability in Sprague-Dawley rat brain assessed as compound remaining after 90 mins; assay type: ADME, tissue-based; details: read-out: Stability
Measured attribute: remaining at 1.5 h

Quick one: remaining at 1.5 h of CC(C)Nc1cc(-c2csc(N(C)C(=O)c3ccc(O[11CH3])cc3)n2)ncn1 ? > 80%

---

molecular target: Metabotropic glutamate receptor 5 (Rattus norvegicus)
Sequence (P31424 whole entry): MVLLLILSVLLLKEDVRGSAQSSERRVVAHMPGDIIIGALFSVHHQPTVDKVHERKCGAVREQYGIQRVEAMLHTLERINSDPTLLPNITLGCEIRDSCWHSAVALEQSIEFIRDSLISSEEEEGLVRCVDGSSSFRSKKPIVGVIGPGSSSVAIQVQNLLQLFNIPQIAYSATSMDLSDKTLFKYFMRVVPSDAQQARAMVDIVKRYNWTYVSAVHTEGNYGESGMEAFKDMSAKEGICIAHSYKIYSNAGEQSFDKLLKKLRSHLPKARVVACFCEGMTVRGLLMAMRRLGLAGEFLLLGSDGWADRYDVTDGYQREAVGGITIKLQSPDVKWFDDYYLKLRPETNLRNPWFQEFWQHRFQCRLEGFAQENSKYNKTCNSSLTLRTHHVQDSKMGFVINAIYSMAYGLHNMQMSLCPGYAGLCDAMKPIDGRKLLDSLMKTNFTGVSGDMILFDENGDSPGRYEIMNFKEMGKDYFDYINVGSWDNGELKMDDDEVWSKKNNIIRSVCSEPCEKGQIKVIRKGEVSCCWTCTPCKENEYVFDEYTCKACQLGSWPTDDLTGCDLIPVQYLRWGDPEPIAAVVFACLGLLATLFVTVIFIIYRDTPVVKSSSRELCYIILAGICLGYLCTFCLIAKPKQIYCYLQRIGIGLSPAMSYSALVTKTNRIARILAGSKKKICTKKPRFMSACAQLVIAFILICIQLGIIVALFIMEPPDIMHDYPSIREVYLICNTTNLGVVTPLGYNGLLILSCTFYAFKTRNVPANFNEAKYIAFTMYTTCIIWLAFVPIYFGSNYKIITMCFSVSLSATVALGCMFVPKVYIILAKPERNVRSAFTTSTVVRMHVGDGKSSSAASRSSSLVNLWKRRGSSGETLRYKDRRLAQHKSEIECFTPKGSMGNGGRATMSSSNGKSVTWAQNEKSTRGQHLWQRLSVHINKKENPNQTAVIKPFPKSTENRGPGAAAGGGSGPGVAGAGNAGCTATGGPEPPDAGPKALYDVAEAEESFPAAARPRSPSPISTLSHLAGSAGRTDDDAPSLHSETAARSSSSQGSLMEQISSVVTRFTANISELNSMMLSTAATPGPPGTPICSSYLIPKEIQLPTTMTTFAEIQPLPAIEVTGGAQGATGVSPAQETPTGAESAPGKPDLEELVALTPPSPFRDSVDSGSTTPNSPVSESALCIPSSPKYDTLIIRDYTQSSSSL
pIC50: −log10 of the molar value.
Measured attribute: pIC50

Recall the recorded pIC50 for CC(C)Nc1cc(-c2csc(N(C)C(=O)c3ccc(OCCF)cc3)n2)ncn1 with Metabotropic glutamate receptor 5 (Rattus norvegicus) and state it. < 5.00

---

assay: Lipophilicity, log D of the compound in octanol-phosphate buffer at pH 7.4 by Shake flask method; type: physicochemical
Measured attribute: logD
Output: the number by itself.

Answered examples (3):
>  <Molecule>
CC(C)Nc1cc(-c2csc(N(C)C(=O)c3ccc(OCCCF)cc3)n2)ncn1

>  <Measured attribute>
logD

>  <Data value>
2.8

$$$$
>  <Molecule>
CC(C)Nc1cc(-c2csc(N(C)C(=O)c3ccc(F)cc3)n2)ncn1

>  <Measured attribute>
logD

>  <Data value>
1.45

$$$$
>  <Molecule>
COc1ccc(C(=O)N(C)c2nc(-c3cc(NC(C)C)ncn3)cs2)cc1

>  <Measured attribute>
logD

>  <Data value>
2.57

$$$$

# input for lookup
Quick one: logD of CC(C)Nc1cc(-c2csc(N(C)C(=O)c3ccc(OCCF)cc3)n2)ncn1 ? 2.59

src = ChEMBL document CHEMBL2062515
